Below, each of the binders is paired with its reported glycan array binding signal (z-score) value.
# Study System: GlcNAc(b1-4)GlcNAc(b1-4)GlcNAc
# Method Description: glycan array binding signal (z-score within array); higher = stronger binding
# Study Conditions: glycan notation: IUPAC condensed, linker removed
This is one part of a sample in which the strongest signals are shown more often than they occur.
Observed Property: glycan array binding signal (z-score)

1. AT1G15820(2) (Arabidopsis thaliana), Q9LMQ2 (protein) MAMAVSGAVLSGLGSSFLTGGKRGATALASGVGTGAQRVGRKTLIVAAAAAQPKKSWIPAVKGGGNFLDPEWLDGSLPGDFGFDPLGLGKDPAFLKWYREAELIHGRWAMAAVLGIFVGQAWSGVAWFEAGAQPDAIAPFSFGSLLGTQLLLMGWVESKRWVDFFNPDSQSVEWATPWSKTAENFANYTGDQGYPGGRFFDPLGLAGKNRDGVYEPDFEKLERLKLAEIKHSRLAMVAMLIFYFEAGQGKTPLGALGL	-0.425
2. Crocus Lectin (Crocus vernus), Q9FVA1 (protein) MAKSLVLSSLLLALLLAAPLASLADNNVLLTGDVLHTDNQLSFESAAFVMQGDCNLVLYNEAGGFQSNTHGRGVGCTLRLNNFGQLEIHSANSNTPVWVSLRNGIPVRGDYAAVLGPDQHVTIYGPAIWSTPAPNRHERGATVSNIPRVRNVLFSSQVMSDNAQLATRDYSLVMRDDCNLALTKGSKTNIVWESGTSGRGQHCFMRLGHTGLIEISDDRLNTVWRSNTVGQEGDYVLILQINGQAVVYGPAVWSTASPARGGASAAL	-0.156

Each recorded value in this set is attributed to the supplement of paper PMC8728848.
